tested_system: Proteasome subunit beta type-9 (Homo sapiens)
Sequence (P28065 whole entry): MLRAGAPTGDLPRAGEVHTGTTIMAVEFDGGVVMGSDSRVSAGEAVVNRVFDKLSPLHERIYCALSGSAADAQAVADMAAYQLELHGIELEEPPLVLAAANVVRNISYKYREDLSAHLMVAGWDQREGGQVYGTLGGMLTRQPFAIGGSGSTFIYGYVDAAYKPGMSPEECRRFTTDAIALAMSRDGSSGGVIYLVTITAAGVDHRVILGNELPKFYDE
run_description: Inhibition of human proteasome subunit beta type-1i in using fluorogenic substrate by UV-spectrometry
pIC50: −log10 of the molar value.
metric: pIC50

Consider the worked cases shown below.
>>> observed_result("CCC(C)/C=C(\\C)c1cc2c(cn1)C(=O)c1c(cc(OC)c(O)c1O)C2=O (stereo not drawn)")
"< 4.30"
>>> observed_result("CCC(C)/C=C(\\C)c1cc2c(cn1)C(=O)C1=C(N)C(=O)C(OC)=CC1=C2 (stereo not drawn)")
"< 4.30"

Give the measured pIC50 of CCC(C)/C=C(\C)C1=Cc2cc3c(c(O)c2CO1)C(=O)C(O)(CC(C)=O)C(OC)=C3 (stereo not drawn) . < 4.30

====

tested_system: Proteasome Macropain subunit MB1 (Homo sapiens)
Sequence (P28074 whole entry): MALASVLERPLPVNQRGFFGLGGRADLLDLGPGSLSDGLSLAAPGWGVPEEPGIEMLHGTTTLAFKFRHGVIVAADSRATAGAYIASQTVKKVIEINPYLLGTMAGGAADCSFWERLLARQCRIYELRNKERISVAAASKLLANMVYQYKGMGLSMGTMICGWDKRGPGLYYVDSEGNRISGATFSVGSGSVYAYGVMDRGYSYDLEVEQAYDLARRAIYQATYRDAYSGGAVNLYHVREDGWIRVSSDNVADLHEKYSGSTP
run_description: Inhibition of human constitutive proteasome subunit beta type-5 in human erythrocytes using fluorogenic substrate by UV-spectrometry
Form field: pIC50 (one value per entry).
On this scale, pIC50 is minus log10 of a concentration expressed in M (mol/L).

// known answers, use as guide
>>> observed_result("CCC(C)/C=C(\\C)C1=Cc2cc3c(c(O)c2CO1)C(=O)C(O)(CC(C)=O)C(OC)=C3 (stereo not drawn)")
4.34
>>> observed_result("CCC(C)/C=C(\\C)c1cc2c(cn1)C(=O)c1c(cc(OC)c(O)c1O)C2=O (stereo not drawn)")
4.80

Would you kindly look at the next entry?
What does the data say about its pIC50? Entry: CCC(C)/C=C(\C)c1cc2c(cn1)C(=O)C1=C(N)C(=O)C(OC)=CC1=C2 (stereo not drawn) 4.66

====

Catalogue of pIC50 readings, one per entry.
tested_system: Proteasome subunit beta type-10 (Homo sapiens, UniProt P40306)
Sequence (P40306 whole entry): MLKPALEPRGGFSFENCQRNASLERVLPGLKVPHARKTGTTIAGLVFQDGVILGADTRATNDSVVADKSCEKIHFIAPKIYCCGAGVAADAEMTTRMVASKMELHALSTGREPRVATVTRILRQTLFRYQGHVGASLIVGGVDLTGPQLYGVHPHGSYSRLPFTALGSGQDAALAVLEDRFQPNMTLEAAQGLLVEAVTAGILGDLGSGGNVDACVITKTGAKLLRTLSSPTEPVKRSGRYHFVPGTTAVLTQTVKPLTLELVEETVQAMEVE
run_description: Inhibition of human proteasome subunit beta type-2i using fluorogenic substrate by UV-spectrometry
Interpret pIC50 as the negative base-10 log of the concentration measured in mol/L.

# count of solved cases: 2
>>> observed_result("CCC(C)/C=C(\\C)C1=Cc2cc3c(c(O)c2CO1)C(=O)C(O)(CC(C)=O)C(OC)=C3 (stereo not drawn)")
4.52
>>> observed_result("CCC(C)/C=C(\\C)c1cc2c(cn1)C(=O)c1c(cc(OC)c(O)c1O)C2=O (stereo not drawn)")
4.37

Consider the record given below.
Would you mind telling me what pIC50 value was observed for CCC(C)/C=C(\C)c1cc2c(cn1)C(=O)C1=C(N)C(=O)C(OC)=CC1=C2 (stereo not drawn) ? 4.48

====

tested_system: Proteasome subunit beta type-8 (Homo sapiens)
Sequence (P28062 whole entry): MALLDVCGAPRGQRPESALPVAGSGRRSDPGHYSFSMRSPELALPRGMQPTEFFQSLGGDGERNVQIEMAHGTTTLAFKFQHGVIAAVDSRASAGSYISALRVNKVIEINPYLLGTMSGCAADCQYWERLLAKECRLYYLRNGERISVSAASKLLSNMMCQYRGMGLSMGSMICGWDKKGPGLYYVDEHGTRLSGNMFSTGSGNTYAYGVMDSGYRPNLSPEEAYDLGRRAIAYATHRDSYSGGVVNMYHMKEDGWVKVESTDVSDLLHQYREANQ
run_description: Inhibition of human proteasome subunit beta type-5i using fluorogenic substrate by UV-spectrometry
metric: IC50

>>> observed_result("CCC(C)/C=C(\\C)C1=Cc2cc3c(c(O)c2CO1)C(=O)C(O)(CC(C)=O)C(OC)=C3 (stereo not drawn)")
"50 µM"
>>> observed_result("CCC(C)/C=C(\\C)c1cc2c(cn1)C(=O)c1c(cc(OC)c(O)c1O)C2=O (stereo not drawn)")
"40 µM"

Requested field: IC50. Item: CCC(C)/C=C(\C)c1cc2c(cn1)C(=O)C1=C(N)C(=O)C(OC)=CC1=C2 (stereo not drawn) 20 µM

These data points were gathered from ChEMBL document CHEMBL5131452.
